Below, each of the binders is paired with its reported interaction score value.
Biological target: T1, 4H234-AA
T1 chain: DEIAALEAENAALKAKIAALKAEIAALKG
Assay: two-hybrid library CCmax;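 further: natural log of median RNA to DNA barcode read ratio; higher means stronger binding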
Conditions: mean of both orientations
Output spec: single numeric token, no unit.

Examples with their reported interaction score follow.
[
  {
    "binder": "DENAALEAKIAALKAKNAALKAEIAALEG [4H1401-AA]",
    "data_value": 0.335
  },
  {
    "binder": "DKIAALEAEIAALKAKIAALEAKNAALEG [4H2151-AA]",
    "data_value": -1.58
  },
  {
    "binder": "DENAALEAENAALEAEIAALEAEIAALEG [4H1153-AA]",
    "data_value": 0.621
  }
]

Attention now turns to another entry.
Entry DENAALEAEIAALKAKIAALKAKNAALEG [4H1135-AA] has what interaction score? -1.27

Source listed as paper PMC10397247.
